METHOD SUMMARY: Study A: single-dose pharmacokinetics of serum 25-hydroxyvitamin D3 in subjects with stage 3 or 4 CKD
Type: in vivo, human
RUN CONDITIONS: human, serum, iv, 448 ug, baseline-adjusted 25-hydroxyvitamin D3; 448 μg iv single dose; read-out: AUC0-42 days median
QUANTITY: AUC(0-t) (ng·h/mL)
Give the value, in units of ng·h/mL, as a plain number.

# input molecule: C=C1CC[C@H](O)C/C1=C/C=C1\CCC[C@]2(C)[C@@H]([C@H](C)CCCC(C)(C)O)CC[C@@H]12 [25-hydroxyvitamin D3] ; wanted: its AUC(0-t)
18800

====

METHOD SUMMARY: Study A: single-dose pharmacokinetics of serum 25-hydroxyvitamin D3 in subjects with stage 3 or 4 CKD
Assay type: in vivo, human
RUN CONDITIONS: human, serum, iv, 448 ug, observed 25-hydroxyvitamin D3; 448 μg iv single dose; read-out: AUC0-42 days mean
QUANTITY: AUC(0-t) (ng·h/mL)
Give the value, in units of ng·h/mL, as a plain number.

# input molecule: C=C1CC[C@H](O)C/C1=C/C=C1\CCC[C@]2(C)[C@@H]([C@H](C)CCCC(C)(C)O)CC[C@@H]12 [25-hydroxyvitamin D3] ; wanted: its AUC(0-t)
43500

====

METHOD SUMMARY: Study A: single-dose pharmacokinetics of serum 25-hydroxyvitamin D3 in subjects with stage 3 or 4 CKD
Format: in vivo, human
RUN CONDITIONS: human, serum, iv, 448 ug, baseline-adjusted 25-hydroxyvitamin D3; 448 μg iv single dose; read-out: t1/2 mean (SD) (converted)
QUANTITY: half-life
Write down the value, and be sure its unit follows.

# input molecule: C=C1CC[C@H](O)C/C1=C/C=C1\CCC[C@]2(C)[C@@H]([C@H](C)CCCC(C)(C)O)CC[C@@H]12 [25-hydroxyvitamin D3] ; wanted: its half-life
31.1 days

====

METHOD SUMMARY: Study A: single-dose pharmacokinetics of serum 25-hydroxyvitamin D3 in subjects with stage 3 or 4 CKD
Type: in vivo, human
RUN CONDITIONS: human, serum, iv, 448 ug, baseline-adjusted 25-hydroxyvitamin D3; 448 μg iv single dose; read-out: AUC0-last mean
QUANTITY: AUC(0-t) (ng·h/mL)
Give the value, in units of ng·h/mL, as a plain number.

# input molecule: C=C1CC[C@H](O)C/C1=C/C=C1\CCC[C@]2(C)[C@@H]([C@H](C)CCCC(C)(C)O)CC[C@@H]12 [25-hydroxyvitamin D3] ; wanted: its AUC(0-t)
19600

====

METHOD SUMMARY: Study A: single-dose pharmacokinetics of serum 25-hydroxyvitamin D3 in subjects with stage 3 or 4 CKD
Format: in vivo, human
RUN CONDITIONS: human, serum, iv, 448 ug, baseline-adjusted 25-hydroxyvitamin D3; 448 μg iv single dose; read-out: tmax median
QUANTITY: Tmax (min)
Give the value, in units of min, as a plain number.

# input compound: C=C1CC[C@H](O)C/C1=C/C=C1\CCC[C@]2(C)[C@@H]([C@H](C)CCCC(C)(C)O)CC[C@@H]12 [25-hydroxyvitamin D3] ; wanted: its Tmax
15

====

METHOD SUMMARY: Study A: single-dose pharmacokinetics of serum 25-hydroxyvitamin D3 in subjects with stage 3 or 4 CKD
Format: in vivo, human
RUN CONDITIONS: human, serum, iv, 448 ug, baseline-adjusted 25-hydroxyvitamin D3; 448 μg iv single dose; read-out: AUC0-42 days mean
QUANTITY: AUC(0-t)
Write down the value, and be sure its unit follows.

# input compound: C=C1CC[C@H](O)C/C1=C/C=C1\CCC[C@]2(C)[C@@H]([C@H](C)CCCC(C)(C)O)CC[C@@H]12 [25-hydroxyvitamin D3] ; wanted: its AUC(0-t)
19600 ng·h/mL
